molecular target: Recombinant human integrin αvβ3 (Homo sapiens (Human), UniProt P05106+P06756); assay: Solid Phase Receptor Assay (SPRA) for αvβ3 function; conditions: vitronectin-coated plate
Sequence (P05106 27-718, one chain of several): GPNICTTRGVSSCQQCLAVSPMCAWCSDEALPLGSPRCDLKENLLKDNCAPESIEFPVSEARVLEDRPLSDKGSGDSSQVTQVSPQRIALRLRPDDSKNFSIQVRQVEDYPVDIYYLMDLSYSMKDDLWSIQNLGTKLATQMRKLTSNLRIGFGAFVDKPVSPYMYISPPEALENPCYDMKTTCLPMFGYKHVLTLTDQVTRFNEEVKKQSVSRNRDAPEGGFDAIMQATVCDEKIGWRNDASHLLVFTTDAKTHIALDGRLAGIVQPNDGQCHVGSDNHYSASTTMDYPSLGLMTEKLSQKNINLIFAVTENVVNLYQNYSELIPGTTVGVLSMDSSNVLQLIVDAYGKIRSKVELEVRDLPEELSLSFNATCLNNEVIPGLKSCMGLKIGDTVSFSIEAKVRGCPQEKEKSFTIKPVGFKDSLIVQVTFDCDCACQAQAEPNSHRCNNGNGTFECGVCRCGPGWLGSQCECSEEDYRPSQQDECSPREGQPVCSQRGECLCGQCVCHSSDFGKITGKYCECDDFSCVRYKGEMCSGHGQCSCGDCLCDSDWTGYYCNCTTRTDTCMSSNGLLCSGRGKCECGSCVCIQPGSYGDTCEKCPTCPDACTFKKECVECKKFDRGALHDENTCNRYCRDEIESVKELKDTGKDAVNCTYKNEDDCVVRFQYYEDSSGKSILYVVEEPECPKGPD
Each entry below carries its reported pIC50.
Scale note: pIC50 = -log10(concentration in M).

Below are worked cases with known answers.
{"compound": "Cc1cc(C)cc(C(CC(=O)O)NC(=O)CNC(=O)c2cccc(NC(=N)N)c2)c1 (stereo not shown) [Example C4, reference compound]", "assay system": "Recombinant human integrin αvβ3 (Homo sapiens (Human), UniProt P05106+P06756)", "pIC50": 8.40}
{"compound": "O=C(O)C[C@H](NC(=O)CNC(=O)c1cc(O)cc(NC2=NCC(O)CN2)c1)c1cc(Br)cc(C(F)F)c1 (stereo partly shown)", "assay system": "Recombinant human integrin αvβ3 (Homo sapiens (Human), UniProt P05106+P06756)", "pIC50": 8.52}
{"compound": "Cc1ccc(O)c(C(CC(=O)O)NC(=O)CNC(=O)c2cccc(NC(=N)N)c2)c1 (stereo not shown) [Example C8, reference compound]", "assay system": "Recombinant human integrin αvβ3 (Homo sapiens (Human), UniProt P05106+P06756)", "pIC50": 8.30}

Inquiry: Return reported pIC50; argument: Cc1cc(Br)cc([C@H](CC(=O)O)NC(=O)CNC(=O)c2cc(O)cc(NC3=NCC(O)CN3)c2)c1 (stereo partly shown)
Reply text: 8.70

* * *

Each entry below carries its reported log10 of IC50.
target: Recombinant human integrin αvβ6 (Homo sapiens (Human), UniProt P06756+P18564); assay: Solid Phase Receptor Assay (SPRA) for αvβ6 function; conditions: LAP-coated plate
Sequence (P06756 31-992): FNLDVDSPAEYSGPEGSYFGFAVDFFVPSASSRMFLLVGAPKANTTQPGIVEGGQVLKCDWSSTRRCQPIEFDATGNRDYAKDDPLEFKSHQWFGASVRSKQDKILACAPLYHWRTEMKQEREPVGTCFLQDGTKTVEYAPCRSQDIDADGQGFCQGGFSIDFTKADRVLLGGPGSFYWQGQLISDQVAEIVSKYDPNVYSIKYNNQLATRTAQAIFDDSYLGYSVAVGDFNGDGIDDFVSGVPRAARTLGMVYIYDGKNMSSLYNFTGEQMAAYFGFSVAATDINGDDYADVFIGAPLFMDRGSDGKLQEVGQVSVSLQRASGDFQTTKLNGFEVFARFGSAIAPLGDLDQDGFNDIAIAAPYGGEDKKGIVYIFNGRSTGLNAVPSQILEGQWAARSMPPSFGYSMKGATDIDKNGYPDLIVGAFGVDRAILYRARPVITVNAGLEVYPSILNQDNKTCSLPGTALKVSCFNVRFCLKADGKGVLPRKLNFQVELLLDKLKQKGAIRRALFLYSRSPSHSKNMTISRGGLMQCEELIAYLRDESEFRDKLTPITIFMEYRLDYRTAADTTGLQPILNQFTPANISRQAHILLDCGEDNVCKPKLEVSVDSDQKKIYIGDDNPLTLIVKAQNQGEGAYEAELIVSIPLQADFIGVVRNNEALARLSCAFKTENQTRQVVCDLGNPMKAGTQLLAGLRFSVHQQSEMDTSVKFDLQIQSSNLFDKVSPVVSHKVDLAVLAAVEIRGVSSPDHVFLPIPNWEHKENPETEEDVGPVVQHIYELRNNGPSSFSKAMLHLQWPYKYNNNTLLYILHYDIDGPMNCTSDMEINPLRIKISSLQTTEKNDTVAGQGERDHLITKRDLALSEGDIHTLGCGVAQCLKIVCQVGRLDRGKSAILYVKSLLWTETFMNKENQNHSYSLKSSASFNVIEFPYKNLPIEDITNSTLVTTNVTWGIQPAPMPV
Sequence (P18564 22-707): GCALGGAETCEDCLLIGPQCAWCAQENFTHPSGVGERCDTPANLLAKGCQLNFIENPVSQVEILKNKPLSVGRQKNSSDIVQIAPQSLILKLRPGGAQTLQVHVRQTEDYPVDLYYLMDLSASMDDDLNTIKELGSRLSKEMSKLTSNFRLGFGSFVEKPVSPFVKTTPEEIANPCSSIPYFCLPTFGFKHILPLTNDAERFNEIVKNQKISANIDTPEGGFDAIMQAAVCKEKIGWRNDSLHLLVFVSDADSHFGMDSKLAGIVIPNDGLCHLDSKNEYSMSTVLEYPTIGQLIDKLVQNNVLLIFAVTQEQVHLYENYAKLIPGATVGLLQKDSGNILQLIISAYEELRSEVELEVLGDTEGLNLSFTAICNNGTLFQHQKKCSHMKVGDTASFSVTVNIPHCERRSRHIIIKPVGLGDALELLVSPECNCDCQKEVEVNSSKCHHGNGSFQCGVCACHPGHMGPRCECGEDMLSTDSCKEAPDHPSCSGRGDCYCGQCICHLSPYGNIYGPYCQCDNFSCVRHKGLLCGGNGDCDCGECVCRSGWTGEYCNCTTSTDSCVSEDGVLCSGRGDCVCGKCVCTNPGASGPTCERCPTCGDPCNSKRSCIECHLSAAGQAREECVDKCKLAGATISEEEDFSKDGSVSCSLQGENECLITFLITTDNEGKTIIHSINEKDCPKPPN
// stored as log10 of IC50 expressed in nM

{"compound": "O=C(O)C[C@H](NC(=O)CNC(=O)c1cc(O)cc(NC2=NCC(O)CN2)c1)c1cc(Cl)cc(Br)c1O (some centres unmarked) [Example C1, reference compound]", "log10 of IC50": 0.30}
{"compound": "Cc1ccc(O)c(C(CC(=O)O)NC(=O)CNC(=O)c2cc(O)cc(NC3=NCC(O)CN3)c2)c1 (centres unmarked) [Example C6, reference compound]", "log10 of IC50": 0.00}
{"compound": "O=C(O)C[C@H](NC(=O)CNC(=O)c1cc(O)cc(NC2=NCC(O)CN2)c1)c1cc(Cl)cc(Br)c1 (some centres unmarked)", "log10 of IC50": -0.40}
{"compound": "O=C(O)C[C@H](NC(=O)CNC(=O)c1cc(O)cc(NC2=NCC(O)CN2)c1)c1cc(Cl)cc(C(F)(F)F)c1 (some centres unmarked)", "log10 of IC50": -0.30}

Inquiry: Return reported log10 of IC50; argument: O=C(O)C[C@H](NC(=O)CNC(=O)c1cc(O)cc(NC2=NCC(O)CN2)c1)c1cc(C(F)(F)F)cc(C(F)(F)F)c1 (some centres unmarked)
Reply text: -0.52

Inquiry: Return reported log10 of IC50; argument: O=C(O)C[C@H](NC(=O)CNC(=O)c1cc(O)cc(NC2=NCC(O)CN2)c1)c1cc(Cl)cc(Cl)c1 (some centres unmarked)
Reply text: -0.22

* * *

Each entry below carries its reported pIC50.
target: Recombinant human integrin αvβ3 (Homo sapiens (Human), UniProt P05106+P06756); assay: Solid Phase Receptor Assay (SPRA) for αvβ3 function; settings: vitronectin-coated plate
Scale note: pIC50 = -log10(concentration in M).

{"compound": "O=C(O)C[C@H](NC(=O)CNC(=O)c1cncc(NC2=NCC(O)CN2)c1)c1cc(Cl)cc(C(F)(F)F)c1 (some centres unmarked)", "measure": "pIC50", "observed result": 8.52}
{"compound": "O=C(O)C[C@H](NC(=O)CNC(=O)c1cncc(NC2=NCC(O)CN2)c1)c1cc(Br)cc(Br)c1 (some centres unmarked)", "measure": "pIC50", "observed result": 9.52}
{"compound": "O=C(O)C[C@H](NC(=O)CNC(=O)c1cc(O)cc(NC2=NCC(O)CN2)c1)c1cc(Cl)cc(C(F)(F)F)c1 (some centres unmarked)", "measure": "pIC50", "observed result": 8.52}
{"compound": "O=C(O)C[C@H](NC(=O)CNC(=O)c1cc(O)cc(NC2=NCC(O)CN2)c1)c1cc(Cl)cc(Cl)c1 (some centres unmarked)", "measure": "pIC50", "observed result": 8.40}
{"compound": "O=C(O)C[C@H](NC(=O)CNC(=O)c1cc(O)cc(NC2=NCC(O)CN2)c1)c1ccccc1 (some centres unmarked) [Example C2, reference compound]", "measure": "pIC50", "observed result": 8.52}
{"compound": "O=C(O)C[C@H](NC(=O)CNC(=O)c1cc(O)cc(NC2=NCC(O)CN2)c1)c1cc(Cl)cc(Br)c1 (some centres unmarked)", "measure": "pIC50", "observed result": 9.00}
{"compound": "O=C(O)C[C@H](NC(=O)CNC(=O)c1cc(O)cc(NC2=NCC(O)CN2)c1)c1cc(F)cc(Br)c1 (some centres unmarked)", "measure": "pIC50", "observed result": 8.77}
{"compound": "N=C(N)Nc1cccc(C(=O)NCC(=O)NC(CC(=O)O)c2cc(F)cc(C(F)(F)F)c2)c1 (centres unmarked) [Example C9, reference compound]", "measure": "pIC50", "observed result": 8.40}

Inquiry: Return reported pIC50; argument: O=C(O)C[C@H](NC(=O)CNC(=O)c1cc(O)cc(NC2=NCC(O)CN2)c1)c1cc(Br)cc(OC(F)(F)F)c1 (some centres unmarked)
Reply text: 8.55

Inquiry: Return reported pIC50; argument: N=C(N)Nc1cccc(C(=O)NCC(=O)NC(CC(=O)O)c2ccccc2)c1 (centres unmarked) [Example C5, reference compound]
Reply text: 8.40
